- target-of-assay: CRAC channels (Homo sapiens (Human))
- assay-notes: In-vitro CRAC channel inhibition assay in Jurkat cells (thapsigargin-induced calcium influx)
- Type: cell-based
- Procedure: 1A. In-Vitro CRAC Channel Inhibition Assay in Jurkat Cells Plate is incubated at 37° C./5% CO2 for 30 min followed by further 15 min incubation at room temperature. […] Fluorescence was monitored over 5 min on a plate reader (BMG Labtech., Germany) with excitation at 485 nm and; an emission wavelength at 520 nm. Data were analyzed using GraphPad Prism. IC50 for each compound was determined based on the percent inhibition of thapsigargin-induced calcium influx into cells.
Counter-ions that a name gives are not always drawn.
endpoint-name: inhibition at 1 µM (%)
State just the number; it will be interpreted in %.

{"molecule": "Cn1ccnc1C(=O)Nc1ccc(-n2nc(C(F)(F)F)cc2C2CC2)cc1 [Example 58]", "target-of-assay": "CRAC channels (Homo sapiens (Human))", "observed-measurement": 40.5}
{"molecule": "O=C(Nc1ccc(-n2nc(C3CC3)cc2C2CC2)c(F)c1)c1c(F)cccc1F [Example 33]", "target-of-assay": "CRAC channels (Homo sapiens (Human))", "observed-measurement": 93.1}
{"molecule": "O=C(Cc1ccccn1)Nc1ccc(-n2nc(C(F)(F)F)cc2C2CC2)cc1 [Example 71, hydrochloride]", "target-of-assay": "CRAC channels (Homo sapiens (Human))", "observed-measurement": 100}
{"molecule": "CS(=O)(=O)c1ccc(Cl)c(C(=O)Nc2ccc(-n3nc(C4CC4)cc3C3CC3)cc2)c1 [Example 13]", "target-of-assay": "CRAC channels (Homo sapiens (Human))", "observed-measurement": 37.2}

With CRAC channels (Homo sapiens (Human)) as the test system, O=C(Nc1cnc(-n2nc(C(F)(F)F)cc2C2CC2)nc1)c1c(F)cccc1F [Example 124] showed inhibition at 1 µM of 86.2

With CRAC channels (Homo sapiens (Human)) as the test system, O=C(Nc1ccc(-n2nc(C(F)(F)F)cc2C2CC2)cc1)c1c(Cl)cncc1Cl [Example 49] showed inhibition at 1 µM of 100

With CRAC channels (Homo sapiens (Human)) as the test system, Cc1ncncc1C(=O)Nc1ccc(-n2nc(C(F)(F)F)c(Cl)c2C2CC2)c(F)c1 [Example 119] showed inhibition at 1 µM of 40.5

With CRAC channels (Homo sapiens (Human)) as the test system, O=C(Nc1ccc(-n2nc(C3CC3)cc2C2CC2)nc1)c1ccccc1F [Example 43] showed inhibition at 1 µM of 9.34

With CRAC channels (Homo sapiens (Human)) as the test system, Cc1ncncc1C(=O)Nc1ccc(-n2nc(C(F)(F)F)cc2C2CC2)cc1 [Example 68] showed inhibition at 1 µM of 61.5

----------
- target-of-assay: CRAC channels (Homo sapiens (Human), UniProt Q96D31)
- Sequence (Q96D31 whole entry): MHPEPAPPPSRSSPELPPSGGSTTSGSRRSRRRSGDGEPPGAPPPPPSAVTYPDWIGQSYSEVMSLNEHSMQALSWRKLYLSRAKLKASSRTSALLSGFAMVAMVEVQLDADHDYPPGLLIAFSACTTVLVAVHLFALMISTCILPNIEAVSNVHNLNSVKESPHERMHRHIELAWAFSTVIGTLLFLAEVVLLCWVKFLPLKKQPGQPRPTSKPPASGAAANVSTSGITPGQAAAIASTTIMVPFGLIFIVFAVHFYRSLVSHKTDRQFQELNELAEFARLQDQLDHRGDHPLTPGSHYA
- assay-notes: In-vitro CRAC channel inhibition assay in Jurkat cells (thapsigargin-induced calcium influx)
- Assay type: cell-based
endpoint-name: inhibition at 1 µM (%)
State just the number; it will be interpreted in %.

Known results for compounds:
{"compound": "Cc1ncsc1C(=O)Nc1ccc(-n2nc(C(F)(F)F)cc2C2CC2)cc1", "unit-abbreviation": "%", "inhibition at 1 µM": 99.4}
{"compound": "O=C(Nc1ccc(-n2nc(C3CC3)cc2C2CC2)cc1)c1cccc(F)c1F", "unit-abbreviation": "%", "inhibition at 1 µM": 98.6}
{"compound": "Cc1ccccc1C(=O)Nc1ccc(-n2nc(C(F)(F)F)cc2C2CC2)cc1", "unit-abbreviation": "%", "inhibition at 1 µM": 83.7}
{"compound": "O=C(Nc1ccc(-n2nc(C3CC3)cc2C2CC2)cc1)c1c(Cl)cncc1Cl", "unit-abbreviation": "%", "inhibition at 1 µM": 87.5}
{"compound": "Cc1nnsc1C(=O)Nc1ccc(-n2nc(C3CC3)cc2C2CC2)cc1", "unit-abbreviation": "%", "inhibition at 1 µM": 99}

Please turn your attention to the following entry.
Measured inhibition at 1 µM of CSc1ccc(Cl)c(C(=O)Nc2ccc(-n3nc(C(F)(F)F)cc3C3CC3)cc2)c1 : 100

----------
- target-of-assay: CRAC channels (Homo sapiens (Human), UniProt Q96D31)
- assay-notes: In-vitro CRAC channel inhibition assay in Jurkat cells (thapsigargin-induced calcium influx)
- Type: cell-based
Where a name gives a salt, the structure may show the parent alone.
endpoint-name: inhibition at 1 µM

Known results for compounds:
{"compound": "O=C(Cc1ccccn1)Nc1ccc(-n2nc(C(F)(F)F)c(Cl)c2C2CC2)cc1 [Example 81, hydrochloride]", "inhibition at 1 µM": "56.1%"}
{"compound": "O=C(Nc1ccc(-n2nc(C3CC3)cc2C2CC2)nc1)c1cccc(F)c1F [Example 44, hydrochloride]", "inhibition at 1 µM": "63.4%"}
{"compound": "Cc1nnsc1C(=O)Nc1ccc(-n2nc(C3CC3)cc2C2CC2)c(F)c1 [Example 28]", "inhibition at 1 µM": "100%"}
{"compound": "Cc1nc(C)c(C(=O)Nc2ccc(-n3nc(C4CC4)cc3C3CC3)cc2)s1 [Example 3]", "inhibition at 1 µM": "72.2%"}
{"compound": "O=C(Nc1ccc(-n2nc(C(F)(F)F)cc2C2CC2)cc1)c1ccncc1 [Example 66, hydrochloride]", "inhibition at 1 µM": "100%"}

Measured inhibition at 1 µM of O=C(Nc1ccc(-n2nc(C3CC3)cc2C2CC2)cc1)c1c(F)cccc1F [Example 8] : 100%

Measured inhibition at 1 µM of O=C(Nc1ccc(-n2nc(C(F)(F)F)cc2C2CC2)nc1)c1ccccc1F [Example 106] : 100%

----------
# reported inhibition at 1 µM; entries follow
- target-of-assay: CRAC channels (Homo sapiens (Human))
- assay-notes: In-vitro CRAC channel inhibition assay in Jurkat cells (thapsigargin-induced calcium influx)
- Assay type: cell-based
Counter-ions that a name gives are not always drawn.
Report field: quantity (unit follows the number).

Measured inhibition at 1 µM of O=C(Nc1c(F)cccc1F)c1ccc(-n2nc(C(F)(F)F)cc2C2CC2)cc1 [Example 79] : 100%

Measured inhibition at 1 µM of Cc1ncsc1C(=O)Nc1ccc(-n2nc(C(F)(F)F)cc2CF)cc1 [Example 125] : 100%

Measured inhibition at 1 µM of O=C(Nc1ccc(-n2nc(C(F)(F)F)cc2C2CC2)nc1)c1ccncc1 [Example 113, hydrochloride] : 100%

Measured inhibition at 1 µM of O=C(Nc1ccc(-n2nc(C(F)(F)F)cc2C2CC2)cc1)c1c(F)cccc1F [Example 62] : 100%

Measured inhibition at 1 µM of Cc1ccccc1C(=O)Nc1ccc(-n2nc(C3CC3)cc2C2CC2)cc1 [Example 7] : 99%
